System: T1, human recombinant soluble CD73 protein (human, UniProt P21589 27-547)
T1 construct: also called huCD73; rhCD73
T1 sequence: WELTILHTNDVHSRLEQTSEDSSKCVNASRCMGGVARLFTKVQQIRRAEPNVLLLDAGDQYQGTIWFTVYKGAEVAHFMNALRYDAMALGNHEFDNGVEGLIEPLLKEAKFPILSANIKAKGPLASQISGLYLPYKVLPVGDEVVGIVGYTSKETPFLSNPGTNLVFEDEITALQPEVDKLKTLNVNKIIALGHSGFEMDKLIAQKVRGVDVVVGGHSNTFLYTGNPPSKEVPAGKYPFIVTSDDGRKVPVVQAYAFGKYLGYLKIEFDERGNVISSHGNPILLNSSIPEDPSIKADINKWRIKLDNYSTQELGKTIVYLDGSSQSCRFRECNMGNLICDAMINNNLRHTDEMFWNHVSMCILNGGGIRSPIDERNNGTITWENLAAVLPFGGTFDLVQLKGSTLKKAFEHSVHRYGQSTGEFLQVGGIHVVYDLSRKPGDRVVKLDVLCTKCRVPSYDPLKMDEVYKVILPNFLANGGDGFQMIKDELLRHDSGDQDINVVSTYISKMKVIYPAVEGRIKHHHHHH
Test Summary: SPR, Ab captured on Protein A, soluble huCD73 as analyte
Please provide measured pKd for the entries that follow.
Answers are plain numbers, as −log10 of the molar value.

These recorded examples may help you get a feel for the data.
Binder	Result Number
H0L2 (antibody, human IgG1, V domains shown, H0 VH limits counted by alignment with H1) VH: QVQLVQSGAEVKKPGASVKVSCKASGYTFTSYNMYWVRQAPGQRLEWMGYIDPYNGGSSYNLTFKGRVTITRDTSASTAYMELSSLRSEDTAVYYCARGYGNYKAWFAYWGQGTLVTVSS VL: DIQMTQSPSSLSASVGDRVTITCKASQSVSNDVAWYQQKPGKAPKLLIYYASTRYTGVPDRFSGSGYGTDFTFTISSLQPEDIATYYCQQDYSSLTFGQGTKLEIK	9.15
H2L1 (antibody, human IgG1, V domains shown) VH: QIQLVQSGAEVKKPGASVKVSCKASGYAFTSYNMYWVRQAPGQSLEWMGYIDPYNGGSSYNLTFKGRVTITVDKSASTAYMELSSLRSEDTAVYYCARGYGNYKAWFAYWGQGTLVTVSS VL: DIQMTQSPSSLSASVGDRVTITCKASQSVSNDVAWYQQKPGKAPKLLIYYASTRYTGVPSRFSGSGYGTDFTFTISSLQPEDIATYYCQQDYSSLTFGQGTKLEIK	8.85
H3L4 (antibody, human IgG1, V domains shown) VH: QIQLVQSGAEVKKPGASVKVSCKASGYAFTSYNMYWVRQAPGQSLEWIGYIDPYNGGSSYNLTFKGKATITVDKSASTAYMELSSLRSEDTAVYYCARGYGNYKAWFAYWGQGTLVTVSS VL: DVQMTQSPSSLSASVGDRVTITCKASQSVSNDVAWYQQKPGKAPKLLIYYASTRYTGVPDRFSGSGYGTDFTFTISSLQPEDIATYFCQQDYSSLTFGQGTKLEIK	9.00
H0L1 (antibody, human IgG1, V domains shown, H0 VH limits counted by alignment with H1) VH: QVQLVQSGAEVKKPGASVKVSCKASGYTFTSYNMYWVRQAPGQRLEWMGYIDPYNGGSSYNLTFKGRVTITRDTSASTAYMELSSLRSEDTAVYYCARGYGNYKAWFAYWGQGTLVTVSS VL: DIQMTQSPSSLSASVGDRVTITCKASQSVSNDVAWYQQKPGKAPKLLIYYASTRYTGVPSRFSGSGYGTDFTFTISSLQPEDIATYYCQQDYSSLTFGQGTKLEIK	9.05

// next entry
Documented pKd of H1L2 (antibody, human IgG1, V domains shown) VH: QIQLVQSGAEVKKPGASVKVSCKASGYTFTSYNMYWVRQAPGQRLEWMGYIDPYNGGSSYNLTFKGRVTITRDKSASTAYMELSSLRSEDTAVYYCARGYGNYKAWFAYWGQGTLVTVSS VL: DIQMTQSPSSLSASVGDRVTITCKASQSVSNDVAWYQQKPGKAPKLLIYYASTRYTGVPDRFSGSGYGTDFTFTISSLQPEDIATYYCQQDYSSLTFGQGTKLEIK : 9.22

The origin of these recorded values is patent US20220041744A1.
